Target: UniProt:Q13627
Threshold 60 nM: IC50 strictly smaller gives Condition met, otherwise Condition not met.

>>> label_value("N#Cc1cccc2c(-c3ccnc(N)c3)c[nH]c12")
"Condition not met"
>>> label_value("COc1ccc2c(-c3ccnc(N)n3)c[nH]c2c1")
"Condition not met"
>>> label_value("Fc1cc(-c2c[nH]c3cnccc23)ccn1")
"Condition not met"
>>> label_value("Cc1nccc(-c2c[nH]c3cnccc23)n1")
"Condition met"
>>> label_value("Cn1cc(-c2ccncc2)c2ccncc21")
"Condition not met"
>>> label_value("COc1cccc2c(-c3ccnc(N)n3)c[nH]c12")
"Condition not met"
>>> label_value("Nc1nccc(-c2c[nH]c3cc(C(F)(F)F)ccc23)n1")
"Condition not met"
>>> label_value("Nc1nccc(-c2c[nH]c3ccccc23)n1")
"Condition not met"
>>> label_value("Fc1ccc(Cn2cc(-c3ccncc3)c3ccncc32)cc1")
"Condition met"
>>> label_value("N#Cc1cccc2c(-c3ccnc(N)n3)c[nH]c12")
"Condition not met"
>>> label_value("CC(C)n1cc(-c2ccncc2)c2ccncc21")
"Condition met"
>>> label_value("Nc1nccc(-c2c[nH]c3cnccc23)n1")
"Condition met"
>>> label_value("COc1cc(-c2c[nH]c3cnccc23)ccn1")
"Condition not met"

* * *

Molecular target: Dual specificity tyrosine-phosphorylation-regulated kinase 1A (Homo sapiens)
Threshold 300 nM: IC50 strictly smaller gives satisfied, otherwise not satisfied.

>>> label_value("c1cc(-c2cn(CCC3CC3)c3cnccc23)ccn1")
"satisfied"
>>> label_value("c1cc(-c2c[nH]c3cnccc23)ccn1")
"satisfied"
>>> label_value("Nc1cc(-c2c[nH]c3cnccc23)ccn1")
"not satisfied"
>>> label_value("Nc1nccc(-c2c[nH]c3c(Br)cccc23)n1")
"satisfied"
>>> label_value("c1cc(-c2cn(CCCN3CCOCC3)c3cnccc23)ccn1")
"satisfied"
>>> label_value("Clc1cnccc1-c1c[nH]c2cnccc12")
"satisfied"
>>> label_value("Nc1nccc(-c2c[nH]c3cc(Cl)ccc23)n1")
"not satisfied"
>>> label_value("Nc1cc(-c2c[nH]c3c(Cl)cccc23)ccn1")
"satisfied"
>>> label_value("COc1cccc2c(-c3ccnc(N)c3)c[nH]c12")
"not satisfied"
>>> label_value("c1cncc(-c2c[nH]c3cnccc23)c1")
"not satisfied"
>>> label_value("Nc1nccc(-c2c[nH]c3c(Cl)cccc23)n1")
"satisfied"
>>> label_value("Cc1cc(-c2c[nH]c3cnccc23)ccn1")
"satisfied"
>>> label_value("Nc1cc(-c2c[nH]c3cc(Cl)ccc23)ccn1")
"not satisfied"
>>> label_value("Nc1cc(-c2c[nH]c3cc(C(F)(F)F)ccc23)ccn1")
"not satisfied"
>>> label_value("Nc1cc(-c2c[nH]c3c([N+](=O)[O-])cccc23)ccn1")
"satisfied"
>>> label_value("c1ccc2c(-c3c[nH]c4cnccc34)ccnc2c1")
"satisfied"
>>> label_value("COc1ccc2c(-c3ccnc(N)c3)c[nH]c2c1")
"not satisfied"

* * *

Target: Glycogen synthase kinase-3 beta (Homo sapiens)
Sequence (P49841 whole entry): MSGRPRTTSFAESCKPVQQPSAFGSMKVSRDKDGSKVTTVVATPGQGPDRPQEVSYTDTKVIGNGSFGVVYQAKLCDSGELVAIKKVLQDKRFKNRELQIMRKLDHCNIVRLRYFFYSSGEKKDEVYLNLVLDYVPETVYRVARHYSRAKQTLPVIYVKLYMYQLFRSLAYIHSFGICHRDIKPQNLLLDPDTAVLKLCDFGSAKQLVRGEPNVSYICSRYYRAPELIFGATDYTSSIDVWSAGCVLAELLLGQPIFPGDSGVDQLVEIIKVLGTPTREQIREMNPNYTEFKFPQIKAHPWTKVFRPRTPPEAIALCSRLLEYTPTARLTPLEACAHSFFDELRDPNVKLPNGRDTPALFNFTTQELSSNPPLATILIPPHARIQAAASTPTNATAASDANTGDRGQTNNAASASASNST
Assay: Inhibition of full-length recombinant human His-tagged GSK3B recombinant in baculovirus expression system using Alexa-Fluor tracer-236 incubated for 60 mins by TR-FRET based Lantha-screen Eu kinase assay
Settings: read-out: IC50
pIC50: −log10 of the molar value.
Quick rule: pIC50 of at least 5 means satisfied, below that means not satisfied.

>>> label_value("COc1cccc2c(-c3ccnc(N)n3)c[nH]c12")
"not satisfied"
>>> label_value("c1cc(-c2cn(CCC3CC3)c3cnccc23)ccn1")
"satisfied"
